Below, each of the compounds is paired with its reported IC50 value.
Target Desc: human plasma protein factor Xa (Homo sapiens, UniProt P00742)
Construct: measure proteolytic activity of the enzyme (factor Xa)
Sequence (P00742 235-488 limits assumed): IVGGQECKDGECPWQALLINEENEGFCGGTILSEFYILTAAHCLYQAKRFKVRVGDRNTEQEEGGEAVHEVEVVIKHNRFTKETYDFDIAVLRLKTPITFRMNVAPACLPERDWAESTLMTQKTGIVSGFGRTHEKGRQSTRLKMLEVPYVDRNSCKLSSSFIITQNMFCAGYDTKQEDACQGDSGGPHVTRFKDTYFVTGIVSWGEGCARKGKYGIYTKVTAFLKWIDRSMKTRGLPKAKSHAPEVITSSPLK
Sequence (P00742 41-179 partner limits assumed): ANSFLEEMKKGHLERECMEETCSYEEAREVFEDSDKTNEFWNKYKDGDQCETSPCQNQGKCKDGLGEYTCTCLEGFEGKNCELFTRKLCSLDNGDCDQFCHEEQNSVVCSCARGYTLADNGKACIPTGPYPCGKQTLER
Procedure Text: Factor Xa IC50 determination (cleavage of chromogenic substrate S-2765)
Run Conditions: fXa 1 nM, S-2765 100 μM, Tris buffered saline pH 7.4, room temperature

>  <Compound>
O=C(Nc1ccc(Cl)cc1)NC(C(=O)Nc1ccc(-c2cccc[n+]2[O-])cc1)c1ccccc1F (centres unmarked)

>  <Metric Name>
IC50

>  <Assay Result>
≤ 100 nM

$$$$
>  <Compound>
N=C(c1ccc(NC(=O)C(NC(=O)Nc2ccc(Cl)cc2)c2ccccc2F)cc1)N1CCCC1 (centres unmarked)

>  <Metric Name>
IC50

>  <Assay Result>
≤ 100 nM

$$$$
>  <Compound>
CN1CCN=C1c1ccc(NC(=O)C(NC(=O)Nc2ccc(Cl)cc2)c2ccc(F)cc2)cc1 (centres unmarked)

>  <Metric Name>
IC50

>  <Assay Result>
≤ 100 nM

$$$$
>  <Compound>
N=C(c1ccc(NC(=O)C(NC(=O)Nc2ccc(Cl)cc2)c2ccccc2Cl)cc1)N1CCCC1 (centres unmarked)

>  <Metric Name>
IC50

>  <Assay Result>
≤ 100 nM

$$$$
>  <Compound>
COc1ccccc1C(NC(=O)Nc1ccc(Cl)cc1)C(=O)N1CCC(N2CCN(C)CC2=O)CC1 (centres unmarked)

>  <Metric Name>
IC50

>  <Assay Result>
≥ 500 nM

$$$$
>  <Compound>
CN1CCN=C1c1ccc(NC(=O)C(Cc2c[nH]cn2)NC(=O)Nc2ccc(Cl)cc2)cc1 (centres unmarked)

>  <Metric Name>
IC50

>  <Assay Result>
≤ 100 nM

$$$$

(Q) Would you kindly share the measured IC50 for CN1CCN=C1c1ccc(NC(=O)[C@@H](CC(=O)OCc2ccccc2)NC(=O)Nc2ccc(Cl)cc2)cc1 ?
(A) 100 to 500 nM

(Q) Would you kindly share the measured IC50 for CN1CCN=C1c1ccc(NC(=O)C(NC(=O)Nc2ccc(Cl)cc2)c2ccc(Br)cc2)cc1 (centres unmarked) ?
(A) ≤ 100 nM
